biological target: c-Src SH2 domain (Homo sapiens, UniProt P12931); construct: the SH2 domains of two closely-related kinases from the Src subfamily (c-Src and Fyn); made in house; experiment: Competitive fluorescence polarization, c-Src SH2; format: binding; conditions: Table S3 unpaired validation; competition fluorescence polarization; probe FITC-Ahx-GDG-pY-EEISPLLL-NH2 30 nM; [SH2] 123-126 nM; mean

substance | Kd (µM)
Ac-QKEAHH-pY-VNWRTG-NH2 [Syn-G2-1 (synthetic)] | 9.66

----------
# Lookup of reported log10 of Kd keyed by entry
target: Grb2 SH2 domain (Homo sapiens, UniProt P62993); construct: one distantly-related SH2 domain from the adapter protein Grb2; His6-SUMO (N); mCh (only in the data set names 'Grb2mCh'; possibly an mCherry fusion, never explained); made in house; assay: Competitive fluorescence polarization, Grb2 SH2; assay type: binding; settings: Table S3 unpaired validation; competition fluorescence polarization; probe FITC-Ahx-FDDPS(pY)VNVQN 30 nM; [SH2] 123 nM; mean
Sequence (P62993 60-152 limits assumed): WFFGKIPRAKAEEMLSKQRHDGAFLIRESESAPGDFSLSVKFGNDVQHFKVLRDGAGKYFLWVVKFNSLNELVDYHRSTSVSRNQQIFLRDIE
recorded_metric: log10 of Kd (log10 of the value in nM)

substance | target_system | value_observed
Ac-QLGHQR-pY-HNITPG-NH2 [Syn-G2-5 (synthetic)] | Grb2 SH2 domain (Homo sapiens, UniProt P62993) | 2.69
Ac-QKEAHH-pY-VNWRTG-NH2 [Syn-G2-1 (synthetic)] | Grb2 SH2 domain (Homo sapiens, UniProt P62993) | 1.50
Ac-QHNIHS-pY-INIPPG-NH2 [Syn-G2-2 (synthetic)] | Grb2 SH2 domain (Homo sapiens, UniProt P62993) | 0.60
Ac-QHRLNN-pY-ENNRLG-NH2 [Syn-G2-6 (synthetic)] | Grb2 SH2 domain (Homo sapiens, UniProt P62993) | 3.35
Ac-QIEVGT-pY-QNPHNG-NH2 [Syn-G2-7 (synthetic)] | Grb2 SH2 domain (Homo sapiens, UniProt P62993) | 3.51

----------
target: c-Src SH2 domain (Homo sapiens); construct: the SH2 domains of two closely-related kinases from the Src subfamily (c-Src and Fyn); made in house; test: Competitive fluorescence polarization, c-Src SH2; assay type: binding; settings: Table S5 single-amino-acid substitution pairs; competition fluorescence polarization; probe FITC-Ahx-GDG-pY-EEISPLLL-NH2 30 nM; [SH2] 240 nM; mean
Non-standard residues stand in square brackets, D forms with d. Residues, ends and D or L forms follow the SMILES beside them. pY = N[C@@H](Cc1ccc(OP(=O)(O)O)cc1)C(=O)O
So basically: is Kd under 4 µM? Then YES. Not under? Then NO.

compound | discrete_label
CC(=O)N[C@@H](CCC(N)=O)C(=O)N[C@@H](CO)C(=O)N[C@@H](CC(C)C)C(=O)N[C@@H](CCC(=O)O)C(=O)N[C@@H](CCCCN)C(=O)N[C@@H](CO)C(=O)N[C@@H](Cc1ccc(OP(=O)(O)O)cc1)C(=O)N[C@@H](CCC(=O)O)C(=O)N[C@@H](CC(C)C)C(=O)N1CCC[C@H]1C(=O)N[C@@H](CC(=O)O)C(=O)NCC(=O)NCC(N)=O [ACTB pY240] (Ac-QSLEKS[pY]ELPDGG-NH2) | NO
CC[C@H](C)[C@H](NC(=O)CNC(=O)[C@H](CCC(=O)O)NC(=O)[C@@H](NC(=O)[C@H](CCC(N)=O)NC(C)=O)C(C)C)C(=O)N[C@@H](CO)C(=O)N[C@@H](Cc1ccc(OP(=O)(O)O)cc1)C(=O)N[C@@H](CC(=O)O)C(=O)N[C@@H](Cc1ccccc1)C(=O)N[C@H](C(=O)N1CCC[C@H]1C(=O)N[C@H](C(=O)NCC(N)=O)[C@@H](C)O)[C@@H](C)CC [CBS pY308 G307S] (Ac-QVEGIS[pY]DFIPTG-NH2) | NO
CC[C@H](C)[C@H](NC(=O)[C@@H]1CCCN1C(=O)[C@H](CCC(N)=O)NC(C)=O)C(=O)N[C@@H](Cc1ccccc1)C(=O)N[C@@H](CCC(=O)O)C(=O)NCC(=O)N[C@@H](Cc1ccc(OP(=O)(O)O)cc1)C(=O)N[C@@H](C)C(=O)N[C@@H](CC(C)C)C(=O)N1CCC[C@H]1C(=O)N[C@@H](Cc1c[nH]cn1)C(=O)N[C@@H](C)C(=O)NCC(N)=O [ACTA1 pY171] (Ac-QPIFEG[pY]ALPHAG-NH2) | NO
CC(=O)N[C@@H](CCC(N)=O)C(=O)N[C@@H](CO)C(=O)N[C@@H](CC(C)C)C(=O)N[C@@H](CCC(=O)O)C(=O)N[C@@H](CCCCN)C(=O)N[C@@H](CO)C(=O)N[C@@H](Cc1ccc(OP(=O)(O)O)cc1)C(=O)N[C@@H](CCC(=O)O)C(=O)N[C@@H](CC(C)C)C(=O)N[C@@H](CC(C)C)C(=O)N[C@@H](CC(=O)O)C(=O)NCC(=O)NCC(N)=O [ACTB pY240 P243L] (Ac-QSLEKS[pY]ELLDGG-NH2) | NO
CC[C@H](C)[C@H](NC(=O)CNC(=O)[C@H](CCC(=O)O)NC(=O)[C@@H](NC(=O)[C@H](CCC(N)=O)NC(C)=O)C(C)C)C(=O)NCC(=O)N[C@@H](Cc1ccc(OP(=O)(O)O)cc1)C(=O)N[C@@H](CC(=O)O)C(=O)N[C@@H](Cc1ccccc1)C(=O)N[C@H](C(=O)N1CCC[C@H]1C(=O)N[C@H](C(=O)NCC(N)=O)[C@@H](C)O)[C@@H](C)CC [CBS pY308] (Ac-QVEGIG[pY]DFIPTG-NH2) | YES

----------
target: Fyn SH2 domain (Homo sapiens, UniProt P06241); construct: The human SH2 domains from Fyn (142–248), Lyn (121–228); His6-SUMO (N, cleaved yes); made in house; host or cells: E. coli C43(DE3) with BirA helper plasmid; experiment: Competitive fluorescence polarization, Fyn SH2; format: binding; settings: Table S3 unpaired validation; competition fluorescence polarization; probe FITC-Ahx-GDG-pY-EEISPLLL-NH2 0.4 nM; [SH2] 4.12 nM; mean
Sequence (P06241 142-248): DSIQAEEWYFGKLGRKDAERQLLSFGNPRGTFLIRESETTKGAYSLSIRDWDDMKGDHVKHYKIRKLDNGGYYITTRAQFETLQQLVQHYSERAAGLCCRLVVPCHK

substance | target_system | Kd, nM
Ac-QMEKHV-pY-ESVTQG-NH2 [Syn-F-2 (synthetic)] | Fyn SH2 domain (Homo sapiens, UniProt P06241) | 18.3
Ac-QLHVHP-pY-EKVEDG-NH2 [Syn-F-1 (synthetic)] | Fyn SH2 domain (Homo sapiens, UniProt P06241) | 30.2

All figures here come from paper doi:10.1101/2024.12.23.630085.
